# systemName: Cathepsin D (Cat D) (Homo sapiens (Human))
# Sequence (P07339 65-412, species assumed): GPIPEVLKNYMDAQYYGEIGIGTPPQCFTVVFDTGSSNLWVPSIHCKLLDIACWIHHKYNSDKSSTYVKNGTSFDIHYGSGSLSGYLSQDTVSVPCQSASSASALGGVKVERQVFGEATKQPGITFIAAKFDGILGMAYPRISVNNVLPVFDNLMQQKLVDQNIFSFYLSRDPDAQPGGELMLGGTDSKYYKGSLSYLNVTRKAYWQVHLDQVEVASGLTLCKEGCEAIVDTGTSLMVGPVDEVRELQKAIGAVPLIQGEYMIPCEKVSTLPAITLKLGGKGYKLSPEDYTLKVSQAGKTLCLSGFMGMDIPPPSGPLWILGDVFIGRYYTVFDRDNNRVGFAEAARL
# assayNotes: In vitro enzymatic Cathepsin D (Cat D) FRET assay
# Type: biochemical
# testConditions: read-out: CatD IC50
experimentalReadout: IC50 (µM)
Respond with the bare value in µM.

chemicalString: NC1=N[C@@](c2cc(NC(=O)c3cnc(OCc4cncs4)cn3)ccc2F)(C(F)F)[C@H]2C[C@H]2O1
quantityUnit: µM
IC50: 445

**Q:** Recorded IC50 of `C#CCOc1cnc(C(=O)Nc2ccc(Cl)c([C@]3(CF)N=C(N)O[C@H]4C[C@H]43)c2)cn1` , please.
**A:** 1470

**Q:** Recorded IC50 of `Cc1cc(OCC#N)cnc1C(=O)Nc1ccc(F)c([C@@]2(C(F)F)N=C(N)O[C@@H]3C[C@@H]32)c1` , please.
**A:** 1090

**Q:** Recorded IC50 of `COCc1cc(C#N)cnc1C(=O)Nc1ccc(F)c([C@@]2(C(F)F)N=C(N)O[C@@H]3C[C@@H]32)c1` , please.
**A:** 1350
